protocol details: In vitro antagonistic activity towards LTB4 receptor was evaluated by inhibition of binding of [3H]LTB4 to human neutrophils
measured quantity: Ki (nM)

> print(dat)
                    structure.smiles.string  measured.value
1  COc1ccc(/C=C/CCCCOc2ccc(C(=O)c3cccc(C(=O)O)c3)cc2CCC(=O)O)cc1             7.8

P: CCc1cc(C(C)=O)c(O)cc1OCCCOc1ccc2c(=O)c3cc(C(=O)O)ccc3oc2c1
Q: CCc1cc(C(C)=O)c(O)cc1OCCCOc1ccc(C(=O)c2cccc(C(=O)O)c2)cc1CCC(=O)O
Compare P and Q by numeric Ki and name the larger one. Answer by stating the label of the chosen item.
P
(P: 751 nM, Q: 6.8 nM)

These data points were gathered from BindingDB's records for doi:10.1016/S0960-894X(01)80999-9.
